Quick reference: Percentage inhibition of TNF secretion at 10 ng/ml of the listed items.
target-system: CD40 on peripheral blood mononuclear cells (PBMC) from healthy donors (human, UniProt P25942 21-277)
Sequence (P25942 21-277): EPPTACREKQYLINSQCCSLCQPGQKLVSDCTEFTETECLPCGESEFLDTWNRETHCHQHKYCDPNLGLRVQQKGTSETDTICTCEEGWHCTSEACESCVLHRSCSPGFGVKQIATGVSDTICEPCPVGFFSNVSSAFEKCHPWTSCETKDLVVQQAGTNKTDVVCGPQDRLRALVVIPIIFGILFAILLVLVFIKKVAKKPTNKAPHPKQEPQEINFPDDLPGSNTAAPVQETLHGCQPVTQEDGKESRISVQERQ
assay-text: cell-based or functional assay
Unit % implied. Number only.

# input Please look up its Percentage inhibition of TNF secretion at 10 ng/ml: PG102_Var6 (antibody, human IgG4 S228P, kappa, V domains shown, IgG4pro(deltaK)/kappa; also called FFP104_Var6) VH: QVQLQESGPGLVKPSETLSITCTVSGFSLSRYSVYWVRQPPGKGLEWMGMMWGGGSTDYSTSLKSRLTISKDTSKSQVSLKMSSLTAADTAVYYCVRTDGDYWGQGTLVTVSS VL: ELQLTQSPLSLPVTLGQPASISCRSSQSLASSQGNTYLHWYLQRPGQSPRLLIYKVSNRFSGVPDRFSGSGSGTDFTLKISRVEAEDVGVYYCSQSTHVPWTFGGGTKLEIKR
# output 86

Shifting focus to the binder that follows.
# input I would be grateful if you could share the reported Percentage inhibition of TNF secretion at 10 ng/ml for PG102_Var5 (antibody, human IgG4 S228P, kappa, V domains shown, IgG4pro(deltaK)/kappa; also called FFP104_Var5) VH: QVQLQESGPGLVKPSETLSITCTVSGFSLSRYSVYWIRQPPGKGPEWMGMMWGGGSTDYSTSLKSRLTISKDTSKSQVSLKMSSLTAADTAVYYCVRTDGDYWGQGTLVTVSS VL: ELQLTQSPLSLPVTLGQPASISCRSSQSLASSQGNTYLHWYLQRPGQSPRLLIYKVSNRFSGVPDRFSGSGSGTDFTLKISRVEAEDVGVYYCSQSTHVPWTFGGGTKLEIKR .
# output 87.4
